# Substrate: O=C(O)[C@@H](O)CCO
# assay summary: cells, lysate or membranes named
# Assay type: biochemical, Escherichia coli
# assay context: other: 37° C., pH 8, 10 mM NAD
parameter measured: Km (mM)
Give the quantity in mM, number only.

Completed entries (count: 3):
protein | readout unit | Km
Escherichia coli malate dehydrogenase Ec-Mdh variant R81A D86S, SEQ ID No. 170 (Escherichia coli K-12; D86S/R81A) (protein) MKVAVLGAAGGIGQALALLLKTQLPSGSELSLYDIAPVTPGVAVDLSHIPTAVKIKGFSGEDATPALEGADVVLISAGVAAKPGMSRSDLFNVNAGIVKNLVQQVAKTCPKACIGIITNPVNTTVAIAAEVLKKAGVYDKNKLFGVTTLDIIRSNTFVAELKGKQPGEVEVPVIGGHSGVTILPLLSQVPGVSFTEQEVADLTKRIQNAGTEVVEAKAGGGSATLSMGQAAARFGLSLVRALQGEQGVVECAYVEGDGQYARFFSQPLLLGKNGVEERKSIGTLSAFEQNALEGMLDTLKKDIALGEEFVNK | mM | 28
Escherichia coli malate dehydrogenase Ec-Mdh variant R81A, SEQ ID No. 156 (Escherichia coli K-12; R81A) (protein) MKVAVLGAAGGIGQALALLLKTQLPSGSELSLYDIAPVTPGVAVDLSHIPTAVKIKGFSGEDATPALEGADVVLISAGVAAKPGMDRSDLFNVNAGIVKNLVQQVAKTCPKACIGIITNPVNTTVAIAAEVLKKAGVYDKNKLFGVTTLDIIRSNTFVAELKGKQPGEVEVPVIGGHSGVTILPLLSQVPGVSFTEQEVADLTKRIQNAGTEVVEAKAGGGSATLSMGQAAARFGLSLVRALQGEQGVVECAYVEGDGQYARFFSQPLLLGKNGVEERKSIGTLSAFEQNALEGMLDTLKKDIALGEEFVNK | mM | 33
Escherichia coli malate dehydrogenase Ec-Mdh variant R81A M85Q I12V, SEQ ID No. 164 (Escherichia coli K-12; I12V/M85Q/R81A) (protein) MKVAVLGAAGGVGQALALLLKTQLPSGSELSLYDIAPVTPGVAVDLSHIPTAVKIKGFSGEDATPALEGADVVLISAGVAAKPGQDRSDLFNVNAGIVKNLVQQVAKTCPKACIGIITNPVNTTVAIAAEVLKKAGVYDKNKLFGVTTLDIIRSNTFVAELKGKQPGEVEVPVIGGHSGVTILPLLSQVPGVSFTEQEVADLTKRIQNAGTEVVEAKAGGGSATLSMGQAAARFGLSLVRALQGEQGVVECAYVEGDGQYARFFSQPLLLGKNGVEERKSIGTLSAFEQNALEGMLDTLKKDIALGEEFVNK | mM | 19

Task: # query: Km of entry Escherichia coli malate dehydrogenase Ec-Mdh variant R81A M85Q, SEQ ID No. 158 (Escherichia coli K-12; M85Q/R81A) (protein) MKVAVLGAAGGIGQALALLLKTQLPSGSELSLYDIAPVTPGVAVDLSHIPTAVKIKGFSGEDATPALEGADVVLISAGVAAKPGQDRSDLFNVNAGIVKNLVQQVAKTCPKACIGIITNPVNTTVAIAAEVLKKAGVYDKNKLFGVTTLDIIRSNTFVAELKGKQPGEVEVPVIGGHSGVTILPLLSQVPGVSFTEQEVADLTKRIQNAGTEVVEAKAGGGSATLSMGQAAARFGLSLVRALQGEQGVVECAYVEGDGQYARFFSQPLLLGKNGVEERKSIGTLSAFEQNALEGMLDTLKKDIALGEEFVNK
Output: 29

Task: Follow-up item: Escherichia coli malate dehydrogenase Ec-Mdh variant R81A M85E I12V, SEQ ID No. 166 (Escherichia coli K-12; I12V/M85E/R81A) (protein) MKVAVLGAAGGVGQALALLLKTQLPSGSELSLYDIAPVTPGVAVDLSHIPTAVKIKGFSGEDATPALEGADVVLISAGVAAKPGEDRSDLFNVNAGIVKNLVQQVAKTCPKACIGIITNPVNTTVAIAAEVLKKAGVYDKNKLFGVTTLDIIRSNTFVAELKGKQPGEVEVPVIGGHSGVTILPLLSQVPGVSFTEQEVADLTKRIQNAGTEVVEAKAGGGSATLSMGQAAARFGLSLVRALQGEQGVVECAYVEGDGQYARFFSQPLLLGKNGVEERKSIGTLSAFEQNALEGMLDTLKKDIALGEEFVNK
Output: 20
